Sourced from paper PMC10222378

biological target: hKV11.1 (hERG) (Homo sapiens); assay: in vitro; details: HEK293 cells stably expressing hKV11.1 (hERG), pH 7.35
Sequence (Q12809 whole entry): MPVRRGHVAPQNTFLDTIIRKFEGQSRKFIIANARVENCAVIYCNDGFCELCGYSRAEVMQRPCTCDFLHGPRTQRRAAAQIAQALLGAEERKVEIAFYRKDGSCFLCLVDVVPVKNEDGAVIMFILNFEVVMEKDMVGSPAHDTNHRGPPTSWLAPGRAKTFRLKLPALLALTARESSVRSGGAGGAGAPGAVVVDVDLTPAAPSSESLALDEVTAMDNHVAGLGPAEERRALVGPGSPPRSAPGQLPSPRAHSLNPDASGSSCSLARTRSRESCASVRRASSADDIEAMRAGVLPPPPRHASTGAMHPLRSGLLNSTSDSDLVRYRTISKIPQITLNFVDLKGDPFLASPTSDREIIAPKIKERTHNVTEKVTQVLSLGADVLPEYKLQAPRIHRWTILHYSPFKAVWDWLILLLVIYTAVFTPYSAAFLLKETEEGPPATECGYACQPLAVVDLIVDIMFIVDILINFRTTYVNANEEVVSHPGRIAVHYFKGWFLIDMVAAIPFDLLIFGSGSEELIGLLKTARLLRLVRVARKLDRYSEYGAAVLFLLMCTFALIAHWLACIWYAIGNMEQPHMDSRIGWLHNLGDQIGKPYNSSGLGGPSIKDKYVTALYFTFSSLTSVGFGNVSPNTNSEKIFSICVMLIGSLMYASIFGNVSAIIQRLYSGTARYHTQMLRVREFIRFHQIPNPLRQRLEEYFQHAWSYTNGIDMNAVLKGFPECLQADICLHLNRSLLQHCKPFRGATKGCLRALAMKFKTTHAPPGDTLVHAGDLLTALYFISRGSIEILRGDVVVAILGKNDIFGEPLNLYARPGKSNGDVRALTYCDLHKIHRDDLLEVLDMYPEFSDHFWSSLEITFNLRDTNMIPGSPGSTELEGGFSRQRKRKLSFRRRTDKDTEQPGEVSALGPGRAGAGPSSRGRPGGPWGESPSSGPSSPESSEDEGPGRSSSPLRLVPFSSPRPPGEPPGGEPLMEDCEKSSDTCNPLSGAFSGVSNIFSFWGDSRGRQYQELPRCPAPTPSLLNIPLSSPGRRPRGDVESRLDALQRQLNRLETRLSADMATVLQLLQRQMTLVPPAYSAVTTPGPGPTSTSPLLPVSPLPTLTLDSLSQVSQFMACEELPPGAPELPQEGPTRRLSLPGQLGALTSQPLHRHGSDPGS
Observed Property: potency estimated from few doses (µM)
Hi! Could you send only the number? It should be in µM, unit omitted.

Q: Entry N=C(N)Nc1nc2ccc(Cl)cc2[nH]1 has what potency estimated from few doses?
Result: 12
